# tested_system: T1, Trop-2 on Trop-2 expressing tumor cells (human, UniProt P09758 27-323)
# T1 construct: Endogenous Trop-2 of human tumour cell lines; also called Trop-2 positive tumor cells; A431 (Trop-2+++)
# T1 sequence: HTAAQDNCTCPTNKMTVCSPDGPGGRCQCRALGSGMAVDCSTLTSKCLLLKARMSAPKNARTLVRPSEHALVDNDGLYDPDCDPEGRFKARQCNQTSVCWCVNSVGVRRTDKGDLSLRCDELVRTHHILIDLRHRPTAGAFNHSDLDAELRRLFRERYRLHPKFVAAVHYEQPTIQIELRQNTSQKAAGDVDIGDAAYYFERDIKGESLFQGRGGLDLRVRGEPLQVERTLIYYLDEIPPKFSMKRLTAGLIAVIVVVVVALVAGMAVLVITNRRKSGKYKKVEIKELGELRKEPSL
# assay_info: flow cytometry, A431 cells (Trop-2+++), 0.5 ug antibody per 200,000 cells
readout_name: % positive (%)
Answers are plain numbers, in %.

1) h7E6_L antibody (human IgG1) (antibody, V domains shown, Human IgG1) VH: QVQLQESGPGLVKPSETLSLTCTVSGGSISSYGVHWIRQPPGKGLEWIGVIWTGGSTDYNSALMSRVTISVDTSKNQFSLKLSSVTAADTAVYYCARDGDYDRYTMDYWGQGTLVTVSS VL: DIVMTQSPDSLAVSLGERATINCRASKSVSTSLYSYMHWYQQKPGQPPKLLIYLASNLESGVPDRFSGSGSGTDFTLTISSLQAEDVAVYYCQHSRELPYTFGQGTKLEIK :: 95.1
2) h7E6_SVGN antibody (human IgG1) (antibody, V domains shown, Human IgG1) VH: QVQLQESGPGLVKPSETLSLTCTVSGGSISSYGVHWIRQPPGKGLEWIGVIWTSGVTDYNSALMGRVTISVDTSKNQFSLKLSSVTAADTAVYYCARDGDYDRYTMDYWGQGTLVTVSS VL: DIVMTQSPDSLAVSLGERATINCRASKSVSTSNYSYMHWYQQKPGQPPKLLIYLASNLESGVPDRFSGSGSGTDFTLTISSLQAEDVAVYYCQHSRELPYTFGQGTKLEIK :: 98.1
3) h7E6_N antibody (human IgG1) (antibody, V domains shown, Human IgG1) VH: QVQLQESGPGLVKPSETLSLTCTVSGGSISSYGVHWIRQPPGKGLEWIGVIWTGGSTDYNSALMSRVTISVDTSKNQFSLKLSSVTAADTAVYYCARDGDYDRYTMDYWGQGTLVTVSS VL: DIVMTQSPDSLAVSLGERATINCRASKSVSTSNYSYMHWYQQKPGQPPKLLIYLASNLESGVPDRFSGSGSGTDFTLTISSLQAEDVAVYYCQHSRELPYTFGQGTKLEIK :: 98.6

# context switch: different binder, same % positive
Inquiry: What % positive value was documented for this binder, h7E6_WT antibody (human IgG1) (antibody, V domains shown, Human IgG1) VH: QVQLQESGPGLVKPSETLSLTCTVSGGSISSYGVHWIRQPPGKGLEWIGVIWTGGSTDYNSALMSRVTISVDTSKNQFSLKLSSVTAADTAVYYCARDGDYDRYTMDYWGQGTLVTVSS VL: DIVMTQSPDSLAVSLGERATINCRASKSVSTSGYSYMHWYQQKPGQPPKLLIYLASNLESGVPDRFSGSGSGTDFTLTISSLQAEDVAVYYCQHSRELPYTFGQGTKLEIK ?
Reply text: 94.8
